Values compiled from PubChem BioAssay (NCI).

- Experimental Protocol: NCI Yeast Anticancer Drug Screen. Data for the mlh1 rad18 strain (AID 175)
- Condition Label: S. cerevisiae mlh1 rad18 strain growth inhibition; at 5.0 µM (retest, dose inferred, filed as 0.5); stronger effect = higher value
The panel holds about 79,000 compounds, 15% with a hit somewhere; the sample as a whole holds those more often. Calls of active or inactive are those of the source. Cut-off read from the data, not from the text of the source: active = growth inhibition above about 70%; inactive = the rest.
Quick reference for growth inhibition among some molecules
Quantity Name: growth inhibition

{"Sample Smiles": "O=C(C[n+]1ccccc1)c1ccc2ccc3ccc(Cl)cc3c2c1", "Quantity Name": "growth inhibition", "Measured Value": "29% (inactive)"}
{"Sample Smiles": "CN(C)CCCCN1c2ccccc2Sc2ccc(C(=O)c3ccccc3)cc21", "Quantity Name": "growth inhibition", "Measured Value": "0% (inactive)"}
{"Sample Smiles": "CCCC(=O)Oc1ccc([N+](=O)[O-])cc1", "Quantity Name": "growth inhibition", "Measured Value": "4% (inactive)"}
{"Sample Smiles": "Cc1c(C(=O)N(CCO)CCO)[n+](=O)c2ccccc2n1[O-]", "Quantity Name": "growth inhibition", "Measured Value": "31% (inactive)"}
{"Sample Smiles": "C/C=C/C=C1\\C=Cc2c(C(=O)OC)coc(=O)c21", "Quantity Name": "growth inhibition", "Measured Value": "14% (inactive)"}
{"Sample Smiles": "Oc1c(Br)cc(Cl)cc1Br", "Quantity Name": "growth inhibition", "Measured Value": "3% (inactive)"}
